Study System: Aβ42 (Homo sapiens, UniProt P05067)
Sequence (P05067 672-713): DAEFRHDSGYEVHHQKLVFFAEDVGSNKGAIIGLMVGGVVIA
Method Notes: Th-T (thioflavin-T) assay of Aβ42 aggregation
Assay type: biochemical
Measurement Parameters: concentration 10, unit not given; time-course reading M142
I'd appreciate it if you could supply Th-T fluorescence of Aβ42 with compound, mean of three wells (Fig. 7a source data) values for the items below.
# answer = number (no unit)

Exercise: Quick check: Th-T fluorescence of Aβ42 with compound, mean of three wells (Fig. 7a source data) on Aβ42 (Homo sapiens, UniProt P05067), item C=C1CC[C@@H]2[C@](C)(CC[C@H]3O[C@H](C=C(C)C)C[C@@]23C)[C@@H]1Cc1c(OC)oc(CO)c(C)c1=O ?
Solution: 3.131

Exercise: And what about the compound C=C1CCC2C(C)(CCC=C(C)C)C(O)CCC2(C)C1Cc1c(OC)oc(C)c(C(=O)OC)c1=O (centres unmarked) ?
Solution: 2.953

Exercise: And what about the compound C=C1CC[C@@H]2[C@](C)(CC[C@H]3O[C@H](C=C(C)C)C[C@@]23C)[C@@H]1Cc1c(OC)oc(CO)c(C(=O)OC)c1=O ?
Solution: 1.725

Exercise: And what about the compound C=C1CCC2C(C)(CCC=C(C)C)C(O)CCC2(C)C1Cc1c(OC)oc(CO)c(C(=O)OC)c1=O (centres unmarked) ?
Solution: 1.539

Exercise: And what about the compound C=C1CCC2C(C)(CCC=C(C)C)C(O)CCC2(C)C1Cc1c(OC)oc(CO)c(C)c1=O (centres unmarked) ?
Solution: 2.235

---

Study System: UniProtKB P05067
Method Notes: Th-T (thioflavin-T) assay of Aβ42 aggregation
Format: biochemical
Measurement Parameters: Aβ42 aggregation time course, reading M117
I'd appreciate it if you could supply Th-T fluorescence, mean of three wells values for the items below.

Exercise: Form field: reported Th-T fluorescence, mean of three wells of C=C1CC[C@H]2[C@]3(C)C[C@H](C=C(C)C)O[C@H]3CC[C@]2(C)[C@@H]1Cc1c(OC)oc(C)c(C)c1=O [Compound 24]
Solution: 3.93

Exercise: And what about the compound C=C1CCC2C(C)(CCC=C(C)C)C(O)CCC2(C)C1Cc1c(OC)oc(C)c(C)c1=O (centres unmarked) [Compound 15, viridoxin A hydrolysate] ?
Solution: 3.35

Exercise: And what about the compound C=C1CCC2C3(C)CC(C=C(C)C)OC3CCC2(C)C1Cc1c(OC)oc(C)c(C)c1=O (centres unmarked) [Compound 23] ?
Solution: 3.821

Exercise: And what about the compound C=C1CC[C@H]2[C@]3(C)C[C@H](C=C(C)C)O[C@H]3CC[C@]2(C)[C@@H]1Cc1c(OC)oc(CO)c(C)c1=O [Compound 18] ?
Solution: 3.827

Exercise: And what about the compound C=C1CCC2C(C)(CCC=C(C)C)C(O)CCC2(C)C1Cc1c(O)c(C)c(C)oc1=O (centres unmarked) [Compound 9, higginsianin B] ?
Solution: 2.792

Exercise: And what about the compound C=C1CCC2C(C)(CC(=O)C=C(C)C)C(O)CCC2(C)C1Cc1c(OC)oc(C)c(C)c1=O (centres unmarked) [Compound 25] ?
Solution: 3.606

Exercise: And what about the compound C=C1CC[C@@H]2[C@](C)(CC[C@H]3O[C@H](C=C(C)C)C[C@@]23C)[C@@H]1Cc1c(O)c(C)c(C)oc1=O [Compound 10, higginsianin A] ?
Solution: 3.027

Exercise: And what about the compound C=C1CCC2C(C)(CCC=C(C)C)C(O)CCC2(C)C1Cc1c(OC)oc(CO)c(C)c1=O (centres unmarked) [Compound 12] ?
Solution: 2.054

Exercise: And what about the compound C=C1CCC2C(C)(CCC=C(C)C)C(O)CCC2(C)C1Cc1c(OC)oc(C)c(C)c1=O (centres unmarked) [Compound 11] ?
Solution: 3.419

Exercise: And what about the compound C=C1CC[C@H]2[C@]3(C)C[C@H](C=C(C)C)O[C@H]3CC[C@]2(C)[C@@H]1Cc1c(O)c(C)c(C)oc1=O [Compound 6, subglutinol B] ?
Solution: 3.0425

Exercise: And what about the compound C=C1CCC2C(C)(CCC=C(C)C)C(O)CCC2(C)C1Cc1c(O)c(C)c(C)oc1=O (centres unmarked) [Compound 4] ?
Solution: 2.764

Exercise: And what about the compound C=C1CCC2C(C)(CCC=C(C)C)C(O)CCC2(C)C1Cc1c(OC)oc(CO)c(C(=O)OC)c1=O (centres unmarked) [Compound 13] ?
Solution: 1.0387

Exercise: And what about the compound CC(C)=CCC/C(C)=C/CC/C(C)=C/CC/C(C)=C/Cc1c(O)c(C)c(C)oc1=O [Compound 2] ?
Solution: 2.942

Exercise: And what about the compound C=C1CC[C@H]2[C@]3(C)C[C@@H](C=C(C)C)O[C@H]3CC[C@]2(C)[C@@H]1Cc1c(OC)oc(CO)c(C)c1=O [Compound 17] ?
Solution: 3.6742
